- Tgt: recombinant HIV-1 protease (Human immunodeficiency virus type 1 group M subtype B)
- Construct: recombinant HIV-1 protease
- Assay info: HIV-1 protease substrate cleavage (HPLC) assay
Value kind: IC50

Q: # get_value(readout='IC50', item= O=C(CCCC[n+]1ccccc1)Sc1ccccc1C(=O)Nc1ccc(S(=O)(=O)c2ccc([N+](=O)[O-])cc2)cc1 )
Result: > 100 µM

---

- Tgt: recombinant HIV-1 NCp7 protein (Human immunodeficiency virus type 1 group M subtype B, UniProt P03347)
- Construct: recombinant HIV-1 NCp7 protein
- Assay info: Trp37 zinc finger fluorescence (zinc ejection) assay
- Format: biochemical
- Experimental conditions: Table 10; average decrease in relative fluorescence units over 30 min
Value kind: Zinc Finger Reactivity RFU/min (RFU/min)
Numeric only. Scale: RFU/min

Some solved cases for reference:
[
  {
    "Molecule": "CC(=O)NS(=O)(=O)c1ccc(NC(=O)c2ccccc2SC(=O)CCCCC[n+]2ccccc2)cc1 [Compound 55]",
    "Zinc Finger Reactivity RFU/min [RFU/min]": 1.9
  },
  {
    "Molecule": "CC(=O)NS(=O)(=O)c1ccc(NC(=O)c2ccccc2SC(=O)CCCC[n+]2ccccc2)cc1 [Compound 45]",
    "Zinc Finger Reactivity RFU/min [RFU/min]": 3.6
  },
  {
    "Molecule": "CC(=O)NS(=O)(=O)c1ccc(NC(=O)c2ccccc2SC(=O)CCC[n+]2ccccc2)cc1 [Compound 54]",
    "Zinc Finger Reactivity RFU/min [RFU/min]": 2.2
  },
  {
    "Molecule": "CC(=O)NS(=O)(=O)c1ccc(NC(=O)c2ccccc2NC(=O)CCCC[n+]2ccccc2)cc1 [Compound 56]",
    "Zinc Finger Reactivity RFU/min [RFU/min]": 2.6
  }
]

Q: # get_value(readout='Zinc Finger Reactivity RFU/min', item= CC(=O)NS(=O)(=O)c1ccc(NC(=O)c2ccccc2SC(=O)CCCC[n+]2cccc(Cl)c2)cc1 [Compound 57] )
Result: 0.2

Source: patent US7625917B2
